# Tested on: 521955-158-R6-J3-PDC complex spheroid growth, % test/control
# Assay: Anticancer human tumor 521955-158-R6-J3-PDC patient-derived pancreatic carcinoma cell line growth inhibition [Asc]
# Settings: second compound 0.316 µM; first compound 0.000316 µM; stronger effect = lower value
Record form. Attribute: viability, T/C. Fill in for each entry.
// units = %; emit number, no label

GET /value?item= NC1CCC(NC2CC2c2ccccc2)CC1 (centres undefined) + Cc1c(S(C)(=O)=O)c(-c2cc(F)cc(N3CCN(c4ccc(NS(=O)(=O)c5ccc(NC(CCN6CCC(C(=O)OCCCP(=O)(O)O)CC6)CSc6ccccc6)c(S(=O)(=O)C(F)(F)F)c5)cc4)CC3)c2)c(-c2ccc(Cl)cc2)n1C(C)C &field=viability, T/C returns 47.1

Please fill in: viability, T/C reported for Cn1ncnc1[C@H]1c2n[nH]c(=O)c3cc(F)cc(c23)N[C@@H]1c1ccc(F)cc1 + CNC(C)C(=O)NC1CN(S(=O)(=O)c2cccc(S(=O)(=O)N3CCC4CCC(C(=O)NC(c5ccccc5)c5ccccc5)N4C(=O)C(NC(=O)C(C)NC)C3)c2)CCC2CCC(C(=O)NC(c3ccccc3)c3ccccc3)N2C1=O = 84.8

The value of viability, T/C measured for the molecule Cn1ncnc1[C@H]1c2n[nH]c(=O)c3cc(F)cc(c23)N[C@@H]1c1ccc(F)cc1 + Cc1c(S(C)(=O)=O)c(-c2cc(F)cc(N3CCN(c4ccc(NS(=O)(=O)c5ccc(NC(CCN6CCC(C(=O)OCCCP(=O)(O)O)CC6)CSc6ccccc6)c(S(=O)(=O)C(F)(F)F)c5)cc4)CC3)c2)c(-c2ccc(Cl)cc2)n1C(C)C turned out to be 53.4

Measured viability, T/C, NC1CCC(NC2CC2c2ccccc2)CC1 (centres undefined) + CNC(C)C(=O)NC1CN(S(=O)(=O)c2cccc(S(=O)(=O)N3CCC4CCC(C(=O)NC(c5ccccc5)c5ccccc5)N4C(=O)C(NC(=O)C(C)NC)C3)c2)CCC2CCC(C(=O)NC(c3ccccc3)c3ccccc3)N2C1=O : 83.8

###

# Test system: 521955-158-R6-J3-PDC complex spheroid growth, % test/control
# Assay: Anticancer human tumor 521955-158-R6-J3-PDC cell line growth inhibition [Asc];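 further: spheroids exposed to compounds for 7 days; 100% = DMSO vehicle control wells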
# Settings: second compound 0.1 µM; first compound 0.00949 µM; stronger effect = lower value
Measured attribute: viability, T/C (%)
Record the value in %, omitting the unit from your answer.

Cc1nc(N2CCC3(CC2)COC(C)C3N)c(CO)nc1Sc1ccnc(N)c1Cl (stereo not drawn) + Cc1c(S(C)(=O)=O)c(-c2cc(F)cc(N3CCN(c4ccc(NS(=O)(=O)c5ccc(NC(CCN6CCC(C(=O)OCCCP(=O)(O)O)CC6)CSc6ccccc6)c(S(=O)(=O)C(F)(F)F)c5)cc4)CC3)c2)c(-c2ccc(Cl)cc2)n1C(C)C yielded viability, T/C of 77.4

Per the record, Cc1nc(N2CCC3(CC2)COC(C)C3N)c(CO)nc1Sc1ccnc(N)c1Cl (stereo not drawn) + CNC(C)C(=O)NC1CN(S(=O)(=O)c2cccc(S(=O)(=O)N3CCC4CCC(C(=O)NC(c5ccccc5)c5ccccc5)N4C(=O)C(NC(=O)C(C)NC)C3)c2)CCC2CCC(C(=O)NC(c3ccccc3)c3ccccc3)N2C1=O has viability, T/C of 94.6

Consider NC(=O)C(=Cn1cnc(-c2cc(C(F)(F)F)cc(C(F)(F)F)c2)n1)c1cncnc1 + Cc1c(S(C)(=O)=O)c(-c2cc(F)cc(N3CCN(c4ccc(NS(=O)(=O)c5ccc(NC(CCN6CCC(C(=O)OCCCP(=O)(O)O)CC6)CSc6ccccc6)c(S(=O)(=O)C(F)(F)F)c5)cc4)CC3)c2)c(-c2ccc(Cl)cc2)n1C(C)C . Its measured viability, T/C is 70.9
